System: NCI-H23 lung
Experiment: NCI tumour cell line growth inhibition, 48 h
Each record here notes measured TGI.

CCOC(=O)c1cc2cc(C)cc(C(=O)c3ccc([N+](=O)[O-])cc3)c2[nH]1 :: > 100 µM
Nc1ccccc1C#Cc1ccccc1C#Cc1cnccn1 :: 30.5 µM

Task item: # query: TGI of entry CCOC(=O)c1ccc(N=c2oc3ccc(OC)cc3cc2-c2nc3ccccc3[nH]2)cc1
Reply: > 100 µM

---

Test system: U251 CNS
Test: NCI tumour cell line growth inhibition, 48 h
measured_attribute: TGI (µM)
Numeric only. Scale: µM

CCOC(=O)N1C=CC(=C2C(=C3C=CN(C(=O)OCC)C=C3)C(=C3C=CN(C(=O)OCC)C=C3)C2=C2C=CN(C(=O)OCC)C=C2)C=C1 :: 91.7

# input for lookup
Task item: TGI for COc1ccc2nc3ccccc3c(NCc3ccc(C)cc3)c2c1 ?
Reply: 3.69

---

Test system: MOLT-4 leukemia
Assay: NCI tumour cell line growth inhibition, 48 h
Where a SMILES comes first, the peptide text is derived from it. [ ]: non-standard residue; d: D form. The star is where a group is joined. Bn2Val = CC(C)[C@@H](C(=O)*)N(Cc1ccccc1)Cc1ccccc1; NH(3,4-diMeO-benzyl) = COc1ccc(CN*)cc1OC; NMeV = CN[C@H](C(=O)O)C(C)C
Each entry below carries its reported TGI.
API: value field is a number in µM; no unit string.

Examples from the recorded data:
CC[C@H]1C=CCC[C@@]2(C[C@@H]3CC[C@H]4[C@H](C(=O)OCCCCCCCCCCCCCCCC(=O)N(CCCN)C[C@@H](O)CCN)[C@]5(CCC[C@@H](C)O5)NC(=[N+]34)N2)O1 :: 1.29
CCN1CCN(c2ccc(Nc3ncc4ccc5ncn(C(C)C)c5c4n3)nc2)CC1 :: 1.91

Task item: Bench note: what TGI did O=C(COc1ccc(Cl)cc1Cl)N/N=C/C=C/c1ccc([N+](=O)[O-])o1 show?
Reply: 6.14

Task item: Returns the measured TGI for the input compound. Input: Oc1cccc2c1[nH]c1c(C3=C[C@@]4(O)CC/C=C\CCCCN5CC[C@@H]3[C@]3(CC6/C=C\CCCCN6[C@H]34)C5)nccc12 (stereo partly drawn)
Reply: 4.95

Task item: Any idea what its TGI is? The compound is Cn1sc2ccccc2c1=S
Reply: 14.1

Task item: Need TGI of CCOC(=O)c1c(CN2CCCC2)n(-c2ccccc2)c2cc(Br)c(OC)cc12 , thanks.
Reply: 24.3

Task item: Please look up its TGI: CN(C)Cc1cc(/C=C/C(=O)c2ccc(Cl)c(Cl)c2)cc(CN(C)C)c1O
Reply: 32.3

Task item: Could you tell me which TGI is on file for Clc1ccc2c(NCCNc3nc(N4CCCC4)nc4ccccc34)ccnc2c1 ?
Reply: 5.1

Task item: What does the data say about its TGI? Entry: N#CC1(C#N)C(c2ccccc2)C=CC(c2ccc([N+](=O)[O-])cc2)C1(C#N)C#N (stereo not drawn)
Reply: 7.1

Task item: Recorded TGI for CC1=CC(=O)c2ccc(C)cc2C1=O , please?
Reply: 6.24

Task item: Give its TGI value. Item: O=Nc1c(NO)ccc2nn(-c3ccccc3)nc12
Reply: 74.5

Task item: So what's the measured TGI for this one? CCN(CC)CC[n+]1cc2cc(OC)c(OC)cc2c2ccc3cc4c(cc3c21)OCO4
Reply: 4.64

Task item: Given the compound CC1=C[C@@H]2[C@@H](CC(CO)=C[C@H]3[C@@H]4C(C)(C)[C@]4(OCC(C)C)[C@H](OCC(C)C)[C@@H](C)[C@]23O)C1=O , what is its reported TGI?
Reply: 2.96

Task item: Dear colleague, I am looking for the recorded TGI of the following compound: COc1ccc(CNC(=O)[C@@H]2CCCN2C(=O)[C@@H]2CCCN2C(=O)[C@H](C(C)C)N(C)C(=O)[C@@H](NC(=O)[C@H](C(C)C)N(Cc2ccccc2)Cc2ccccc2)C(C)C)cc1OC (Bn2Val-V[NMeV]PP-{NH(3,4-diMeO-benzyl)})
Reply: 72.2

Provenance of the data: PubChem BioAssay (NCI)
